Test system: HCT-116 colon
Method summary: NCI tumour cell line growth inhibition, 48 h
Here the recorded TGI is given for each entry.

Solved entries:
CCCCc1ccc(Nc2nc(Cl)c3c(ncn3COCCOC(C)=O)n2)cc1	31.3 µM
CC1(C)C(=O)N(O)C(C)(C)N1O	> 10 µM
Cc1c2cnccc2c(C)c2c1[nH]c1ccc(O)cc12	2.2 µM
O=C1C/C(=C/c2ccc(/C=C3/CC(=O)N(c4cccc(Br)c4)C3=O)cc2)C(=O)N1c1cccc(Br)c1	> 100 µM
c1csc(-c2cscc2-c2ccsc2)c1	> 100 µM

We now examine a further compound.
I have this compound here, CC1=C/C(=N\OCC(=O)O)CC(c2ccc(C(C)C)cc2)C1 (stereo unspecified) , and I need its recorded TGI. > 100 µM
